- experimental-target: PI3Kβ (Homo sapiens, UniProt P42338)
- Construct: Full length p110 subunits of PI3K α, β and δ, N-terminally labeled with polyHis tag; polyHis (N); made in house; host or cells: Sf9 insect cells (baculovirus)
- Sequence (P42338 whole entry): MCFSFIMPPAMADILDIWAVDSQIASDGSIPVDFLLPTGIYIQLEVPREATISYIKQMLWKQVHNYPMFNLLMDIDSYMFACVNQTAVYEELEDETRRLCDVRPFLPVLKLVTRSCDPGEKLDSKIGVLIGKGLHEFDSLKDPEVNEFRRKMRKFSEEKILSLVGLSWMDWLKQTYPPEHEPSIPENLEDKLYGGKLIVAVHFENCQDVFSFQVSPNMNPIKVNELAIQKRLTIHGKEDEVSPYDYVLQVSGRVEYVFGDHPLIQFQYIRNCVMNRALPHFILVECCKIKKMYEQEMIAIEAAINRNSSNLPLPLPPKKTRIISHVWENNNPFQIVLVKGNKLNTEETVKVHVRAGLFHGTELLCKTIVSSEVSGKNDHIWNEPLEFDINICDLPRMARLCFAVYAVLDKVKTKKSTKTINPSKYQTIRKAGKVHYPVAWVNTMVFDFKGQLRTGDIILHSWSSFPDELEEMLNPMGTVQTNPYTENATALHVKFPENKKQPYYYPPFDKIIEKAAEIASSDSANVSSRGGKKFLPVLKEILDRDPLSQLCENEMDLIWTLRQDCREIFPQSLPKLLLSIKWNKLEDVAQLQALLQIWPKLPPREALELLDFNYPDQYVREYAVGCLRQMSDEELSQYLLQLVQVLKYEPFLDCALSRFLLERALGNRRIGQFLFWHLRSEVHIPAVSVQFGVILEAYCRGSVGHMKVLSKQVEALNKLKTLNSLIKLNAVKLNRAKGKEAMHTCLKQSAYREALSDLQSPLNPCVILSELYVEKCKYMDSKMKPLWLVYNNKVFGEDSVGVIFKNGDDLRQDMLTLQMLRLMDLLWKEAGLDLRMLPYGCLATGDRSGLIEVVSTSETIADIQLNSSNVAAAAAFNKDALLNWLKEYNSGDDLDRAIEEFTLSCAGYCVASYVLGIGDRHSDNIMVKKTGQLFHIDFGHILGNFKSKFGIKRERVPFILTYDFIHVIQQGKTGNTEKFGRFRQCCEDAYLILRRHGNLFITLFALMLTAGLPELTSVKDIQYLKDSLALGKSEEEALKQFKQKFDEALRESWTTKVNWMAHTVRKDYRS
- Sequence (P27986 whole entry partner): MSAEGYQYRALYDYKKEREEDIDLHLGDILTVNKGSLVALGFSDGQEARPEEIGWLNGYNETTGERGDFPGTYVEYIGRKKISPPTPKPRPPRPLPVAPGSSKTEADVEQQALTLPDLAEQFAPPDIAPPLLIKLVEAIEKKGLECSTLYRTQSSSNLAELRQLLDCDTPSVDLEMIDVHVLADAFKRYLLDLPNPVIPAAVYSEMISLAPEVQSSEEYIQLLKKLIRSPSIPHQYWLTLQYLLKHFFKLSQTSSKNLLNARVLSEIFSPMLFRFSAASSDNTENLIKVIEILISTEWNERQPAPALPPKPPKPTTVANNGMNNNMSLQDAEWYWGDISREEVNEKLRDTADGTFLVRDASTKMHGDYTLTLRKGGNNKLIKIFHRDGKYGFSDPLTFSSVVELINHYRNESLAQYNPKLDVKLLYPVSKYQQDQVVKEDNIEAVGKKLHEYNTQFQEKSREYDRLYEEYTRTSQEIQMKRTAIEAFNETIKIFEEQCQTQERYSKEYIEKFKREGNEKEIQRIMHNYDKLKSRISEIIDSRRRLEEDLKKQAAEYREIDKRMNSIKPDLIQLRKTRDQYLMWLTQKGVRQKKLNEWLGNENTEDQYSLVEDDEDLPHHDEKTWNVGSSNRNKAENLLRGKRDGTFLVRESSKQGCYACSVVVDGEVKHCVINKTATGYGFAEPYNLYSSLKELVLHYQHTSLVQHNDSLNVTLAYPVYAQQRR
- assay-info: In vitro PI3 kinase enzyme assay (PI3K ATP loss), beta
- Type: biochemical
- applied-conditions: average if run more than once
assay-metric: log10 of IC50 (log10 of the value in µM)

>>> measured_value("CC(C)(C)C(=O)NCc1cc(-c2ccc3nccc(N4CCOCC4)c3c2)cnc1Cl [Example 17]")
1.44
>>> measured_value("Oc1cc(-c2ccc3nccc(N4CCOCC4)c3c2)cnc1Cl [Example 19]")
-0.19
>>> measured_value("O=S(=O)(Nc1cc(-c2ccc3ncc(N4C[C@H]5CC[C@H](CC5)C4)nc3c2)cnc1Cl)c1ccc(F)cc1 [Example 62]")
-0.46
>>> measured_value("COc1ccc(S(=O)(=O)Nc2cc(-c3ccc4nc(NC(C)=O)ccc4c3)cnc2Cl)cc1 [Example 45]")
-1.22
>>> measured_value("O=S(=O)(Nc1cc(-c2ccc3ncc(N4CCNCC4)nc3c2)cnc1Cl)c1ccc(F)cc1 [Example 72]")
-2.00
>>> measured_value("CS(=O)(=O)Nc1cc(-c2ccc3ncccc3c2)cnc1Cl [Example 12]")
-0.44
>>> measured_value("CNc1ccc2cc(-c3cnc(Cl)c(NS(=O)(=O)c4ccc(OC)cc4)c3)ccc2n1 [Example 48]")
0.40
>>> measured_value("OCc1cc(-c2ccc3nccc(N4CCOCC4)c3c2)cnc1Cl [Example 14]")
0.73

###

- Test system: phosphorylation of Akt at Ser473
- assay-info: Cell-based phospho-Akt Ser473 assay (HCT116 cell)
- applied-conditions: HCT 116 human colon carcinoma cells, IGF-1 stimulated; average
We label by threshold. Values of IC50 strictly beneath 0.06 µM are y. Values of 0.06 µM and up are n.

>>> label("COC1CCCN(c2cnc3ccc(-c4cnc(Cl)c(NS(=O)(=O)c5ccc(F)cc5)c4)cc3n2)C1 (stereo not drawn)")
"y"
>>> label("COc1ccc(CNc2cnc3ccc(-c4cnc(Cl)c(NS(=O)(=O)c5ccc(F)cc5)c4)cc3n2)cc1")
"n"
>>> label("O=S(=O)(Nc1cc(-c2ccc3ncc(NCCN4CCCCC4)nc3c2)cnc1Cl)c1ccc(F)cc1")
"y"
>>> label("O=S(=O)(Nc1cc(-c2ccc3nccnc3c2)cnc1Cl)c1ccc(F)cc1")
"n"
>>> label("CN(Cc1ccccc1)c1cnc2ccc(-c3cnc(Cl)c(NS(=O)(=O)c4ccc(F)cc4)c3)cc2n1")
"n"
>>> label("CS(=O)(=O)Nc1cc(-c2ccc3nccc(N4CCOCC4)c3c2)cnc1Cl")
"y"
>>> label("O=S(=O)(Nc1cc(-c2ccc3nccc(N4CCOCC4)c3c2)cnc1Cl)c1ccc(F)cc1")
"y"
>>> label("O=S(=O)(Nc1cc(-c2ccc3ncc(N4CCNCC4)nc3c2)cnc1Cl)c1ccc(F)cc1")
"y"
>>> label("O=S(=O)(Nc1cc(-c2ccc3ncccc3n2)cnc1Cl)c1ccc(F)cc1")
"n"
>>> label("Oc1cc(-c2ccc3nccc(N4CCOCC4)c3c2)cnc1Cl")
"n"
>>> label("O=S(=O)(Nc1cc(-c2ccc3nccc(N4CCOCC4)c3c2)cnc1Cl)c1ccccc1Cl")
"y"
>>> label("COCCN(C)c1cnc2ccc(-c3cnc(Cl)c(NS(=O)(=O)c4ccc(F)cc4)c3)cc2n1")
"n"
>>> label("COc1ccc(S(=O)(=O)Nc2cc(-c3ccc4nccc(N5CCC(OC)CC5)c4c3)cnc2Cl)cc1")
"n"
>>> label("CS(=O)(=O)Nc1cc(-c2ccc3nccc(Cl)c3c2)cnc1Cl")
"n"
>>> label("CC1CN(c2cnc3ccc(-c4cnc(Cl)c(NS(=O)(=O)c5ccc(F)cc5)c4)cc3n2)CC(C)O1 (stereo not drawn)")
"y"
>>> label("COc1cnc2ccc(-c3cnc(Cl)c(NS(C)(=O)=O)c3)cc2c1")
"n"
>>> label("CC(Nc1cnc2ccc(-c3cnc(Cl)c(NS(=O)(=O)c4ccc(F)cc4)c3)cc2n1)c1ccc(F)cc1 (stereo not drawn)")
"n"
